Below: compounds with IC50 recorded for PIK3CD (Human) (UniProt O00329) in separate published works.
Give the value, in units of nM, as a plain number.

Would you please look over these solved cases?
[[record]]
compound = "CC(C)C(O)CN(C)[C@H]1CC[C@H](CNc2nc(N3CCOCC3)cc(-n3c(C(F)F)nc4ccccc43)n2)CC1 (stereo partly shown)"
reported_result = 32

[[record]]
compound = "COc1ncc(-c2nc(N3CCOCC3)nc3c(CN4CCC(N5CCC5)CC4)cc(F)cc23)cc1NS(C)(=O)=O"
reported_result = 19

[[record]]
compound = "O=C(NCCN1CCOCC1)N[C@H]1CC[C@H](Nc2nc(N3CCOCC3)nc(-n3c(C(F)F)nc4ccccc43)n2)CC1"
reported_result = 4.6


Now consider a different compound.
Ask | What value of IC50 on PIK3CD (Human) (UniProt O00329) does COc1ncc(-c2nc(N3CCOCC3)nc3c(CN4CCC(N5CCCCC5=O)CC4)c(C)sc23)cc1NS(C)(=O)=O have?
Reply | 9.3
